Molecular target: ER (Homo sapiens, UniProt P03372)
Construct: endogenous in cells; probably T47D or MCF-7
Sequence (P03372 1-595): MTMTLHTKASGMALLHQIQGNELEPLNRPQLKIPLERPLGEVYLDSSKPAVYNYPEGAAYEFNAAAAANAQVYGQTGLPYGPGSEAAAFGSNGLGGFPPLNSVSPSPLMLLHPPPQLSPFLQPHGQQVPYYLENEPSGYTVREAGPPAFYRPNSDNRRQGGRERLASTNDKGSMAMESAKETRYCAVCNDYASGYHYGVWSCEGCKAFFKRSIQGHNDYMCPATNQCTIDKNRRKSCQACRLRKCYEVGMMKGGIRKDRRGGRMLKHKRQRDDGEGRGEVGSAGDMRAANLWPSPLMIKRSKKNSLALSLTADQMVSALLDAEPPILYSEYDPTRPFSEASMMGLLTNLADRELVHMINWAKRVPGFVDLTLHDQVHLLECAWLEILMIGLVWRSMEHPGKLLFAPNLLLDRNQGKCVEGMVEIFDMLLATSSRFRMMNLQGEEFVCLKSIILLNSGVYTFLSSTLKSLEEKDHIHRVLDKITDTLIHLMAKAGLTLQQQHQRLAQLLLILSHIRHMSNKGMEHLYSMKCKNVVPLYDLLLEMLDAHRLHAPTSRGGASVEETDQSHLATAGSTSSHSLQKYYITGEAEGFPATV
Assay: In-cell western blot analysis, relative ER percentage (compounds B1-B126)
Format: cell-based
Details: ER degradation, 16 hours, read-out: ICW DC50
property name: DC50

Incoming: Give a short answer stating reported DC50 for COc1cc(N2CCC3(CC2)CC(CN2CCN4c5cc6c(cc5OC[C@H]4C2)C(=O)N(C2CCC(=O)NC2=O)C6)C3)ccc1[C@@H]1c2ccc3[nH]ncc3c2C[C@@H](C)N1CC(F)F (stereo partly drawn) [Compound B55] .
Outgoing: > 100 nM

Incoming: // fetch DC50 given entry C[C@@H]1Cc2c(ccc3[nH]ncc23)[C@@H](c2ccc(N3CCC(CN4CCN(c5ccc6c(c5)CN(C5CCC(=O)NC5=O)C6=O)CC4)CC3)cn2)N1CC(F)(F)F (stereo partly drawn) [Compound B63]
Outgoing: < 10 nM

Incoming: Return DC50 (reported value) for this compound: COc1cc(N2CCC3(CC2)CC(CN2CCN4c5ccc6c(c5OC[C@H]4C2)CN(C2CCC(=O)NC2=O)C6=O)C3)ccc1[C@@H]1c2ccc3[nH]ncc3c2C[C@@H](C)N1CC(F)F (stereo partly drawn) [Compound B82]
Outgoing: 10 to 100 nM

* * *

Measured IC50, listed per entry.
Experiment: Cell growth assay, WST-8 (compounds B1-B126)
Type: cell-based
Conditions: 96 h; T47D cell line, WST-8, 4 days; read-out: Cell growth inhibition in T47D cell line IC50

Worked cases, IC50 given:
# molecule, IC50
rows = [
    ("C[C@H]1Cc2c(ccc3[nH]ncc23)[C@H](c2ccc(NC3CN(C(=O)CN4CCN5c6cc7c(cc6OC[C@@H]5C4)C(=O)N(C4CCC(=O)NC4=O)C7)C3)cn2)N1CC(F)(F)F (stereo partly drawn) [Compound B35]", "> 10 nM"),
    ("C[C@@H]1Cc2c(ccc3[nH]ncc23)[C@@H](c2ccc(N3CCC4(CC3)CC(CN3CCC5(CC3)COc3c5ccc5c3CN(C3CCC(=O)NC3=O)C5=O)C4)cn2)N1CC(F)(F)F (stereo partly drawn) [Compound B60]", "< 1 nM"),
]

Continue with the next molecule.
Incoming: Please report IC50 for the following molecule: C[C@H]1Cc2c(ccc3[nH]ncc23)[C@H](c2ccc(NC3CN(CC(=O)N4CCN5c6cc7c(cc6OC[C@@H]5C4)C(=O)N(C4CCC(=O)NC4=O)C7)C3)cn2)N1CC(F)(F)F (stereo partly drawn) [Compound B43]
Outgoing: 1 to 10 nM
